- Tested on: TNFα
- experiment: Cot Monocyte TNFα Cell Based Assay
- assay_context: Homo sapiens, Monocyte, read-out: EC50 TNF, LPS-stimulated human monocytes, TNFα
readout_kind: EC50 (nM)

Would you please look over these solved cases?
INSERT INTO assay_data (structure_notation, readout_kind, value_observed) VALUES
  ('CC(C)(C)CNc1c(C#N)cnc2c(Br)cc(N[C@H](c3cn(C4(C(N)=O)CC4)nn3)c3cccc4ncsc34)cc12', 'EC50', 88),
  ('CC(C)(C)CNc1c(C#N)cnc2c(Cl)cc(N[C@H](c3cn(C4(C(F)(F)F)CC4)nn3)c3cccc4cnccc34)cc12', 'EC50', 8770);

[1] CC(C)(C)CNc1c(C#N)cnc2c(C#N)cc(N[C@H](c3cn(C4(C#N)CC4)nn3)c3cccc4ncccc34)cc12
[2] Cc1nc(F)ccc1[C@H](Nc1cc(Cl)c2ncc(C#N)c(NCC(C)(C)C#N)c2c1)c1cn(C2(C(F)(F)F)CC2)nn1
For 1 and 2 , which recorded EC50 is lower? Give the chosen item's label as your response.
1

[1] CC(C)(C)CNc1c(C#N)cnc2c(C#N)cc(N[C@H](c3cn(C4(C(F)F)CC4)nn3)c3cccc4ncccc34)cc12
[2] CC(C)(C)CNc1c(C#N)cnc2c(Cl)cc(N[C@H](c3cn(C4(C(F)(F)F)CC4)nn3)c3cccc4c(=O)n(CC(F)F)ccc34)cc12
Parameter check: reported EC50 is higher for which label, 1 or 2 ? Give the chosen item's label as your response.
2

Cited source: patent US11066414B2
